tested.system: Cytochrome P450 1A2 (Homo sapiens) (UniProt P05177)
Sequence (P05177 whole entry, looked up): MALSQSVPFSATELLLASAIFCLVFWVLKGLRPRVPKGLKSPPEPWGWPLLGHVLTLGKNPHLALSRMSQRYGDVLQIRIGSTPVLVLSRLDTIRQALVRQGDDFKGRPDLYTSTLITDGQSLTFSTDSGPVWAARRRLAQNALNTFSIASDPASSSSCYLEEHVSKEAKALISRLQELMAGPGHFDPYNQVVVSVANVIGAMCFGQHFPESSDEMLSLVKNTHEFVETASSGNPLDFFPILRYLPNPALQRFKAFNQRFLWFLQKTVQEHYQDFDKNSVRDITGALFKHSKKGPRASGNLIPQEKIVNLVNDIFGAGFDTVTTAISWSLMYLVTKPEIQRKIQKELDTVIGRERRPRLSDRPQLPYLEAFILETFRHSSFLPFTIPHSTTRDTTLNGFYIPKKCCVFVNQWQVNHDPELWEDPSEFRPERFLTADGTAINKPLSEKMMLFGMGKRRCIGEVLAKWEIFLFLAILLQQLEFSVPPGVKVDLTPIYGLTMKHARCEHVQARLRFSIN
assay.details: Cytochrome panel assay with activity outcomes
run.conditions: recombinant CYP, pro-luciferin dealkylation, luminescence, p450-cyp1a2; series mostly up to 57.1 µM
The whole screen tested about 16,000 compounds, of which about 5,700 (36%) were called active. Another 24% or so got no clear call; they are omitted. Calls follow the shape of the dose curve; as a rule, active = well fitted curve in the direction sought with a large enough effect; inconclusive = small, poorly fitted or top-dose-only effect, or effect the other way; inactive = no such curve, though single readings can be large or run the other way. This is one part of the list.
Respond using exactly one of the listed classes: Y for active, N for inactive

Record excerpt, results attached:
CCOc1ccccc1Oc1coc2cc(OC)ccc2c1=O : Y
O=C1COc2ccccc2CN1 : N
Cc1ccc(-n2c(SCc3ccc([N+](=O)[O-])cc3)nc3ccccc3c2=O)cc1 : N
COn1c(SCc2ccc(C)cc2C)nc2ccccc2c1=O : Y
CCOc1cc(NC(=S)Nc2cccc(C)c2)c(OCC)cc1NC(=O)CC(C)C : Y

Now for a further compound.
Req: Entry "Cc1ccc(Cn2ccc(NC(=O)c3cc4nc(-c5ccco5)cc(C(F)(F)F)n4n3)n2)cc1" : call = ?
Resp: N

----------
tested.system: Cytochrome P450 1A2 (Homo sapiens) (UniProt P05177)
assay.details: Cytochrome panel assay with activity outcomes
run.conditions: recombinant CYP, pro-luciferin dealkylation, luminescence, p450-cyp1a2; series mostly up to 57.1 µM
About 5,700 (36%) of roughly 16,000 compounds were called active. Roughly 24% stayed inconclusive and do not appear here. Calls follow the shape of the dose curve; as a rule, active = well fitted curve in the direction sought with a large enough effect; inconclusive = small, poorly fitted or top-dose-only effect, or effect the other way; inactive = no such curve, though single readings can be large or run the other way. This is one part of the list.
Reply using exactly one outcome from active, inactive

CN(C)c1ncc2nc(-c3ccc(F)cc3)c(=O)n(C3CC3)c2n1 : active
CN(C)c1ccc(-c2nc(N(C)C)c3ccccc3n2)cc1 : active
CN(C)Cc1ccccc1-c1cncnc1NC1CC1 : active
Cc1cnc(CNc2ncncc2-c2ccccc2Cl)cn1 : active
CN(C)c1nc(-c2ccoc2)nc2ccccc12 : active
CN(C)c1ncc2nc(-c3ccccc3)c(=O)n(C3CC3)c2n1 : active

Req: Identify the outcome logged in this assay for the compound shown: "S=C(S)O[C@@H]1C[C@@H]2C[C@H]1[C@@H]1CCC[C@H]21"
Resp: inactive

Req: Kindly provide the recorded test outcome for the following compound: "Cc1cnc(CNc2ncncc2-c2ccccc2C)cn1"
Resp: active

----------
tested.system: Cytochrome P450 1A2 (Homo sapiens)
assay.details: Cytochrome panel assay with activity outcomes
run.conditions: recombinant CYP, pro-luciferin dealkylation, luminescence, p450-cyp1a2; series mostly up to 57.1 µM
About 5,700 (36%) of roughly 16,000 compounds were called active. Another 24% or so got no clear call; they are omitted. The call rests on the fitted dose curve; in most records, active means well fitted curve in the direction sought with a large enough effect; inconclusive means small, poorly fitted or top-dose-only effect, or effect the other way; inactive means no such curve, though single readings can be large or run the other way. The list shows a part of the results.
The categories you may choose from are active, inactive

CC(/C=N/n1c(-c2cccnc2)n[nH]c1=S)=C\c1ccccc1 : active
c1ccc2c(c1)oc1c(NCCCn3ccnc3)ncnc12 : active
Cc1ccccc1C(=O)N1CCN(c2ccc([N+](=O)[O-])c(NCc3ccco3)c2)CC1 : inactive
CC(C)(C)n1nc2c(c1NC(=O)c1ccc(S(=O)(=O)N3CCCCC3)cc1)CS(=O)C2 (stereo not given) : inactive

Req: Which result was noted for this compound in the test: Cc1ccc(CSc2nnc3c(n2)OC2(Nc4ccccc4-3)C(=O)Nc3ccc(F)cc32)cc1 (stereo not given)
Resp: active

----------
tested.system: Cytochrome P450 1A2 (Homo sapiens)
assay.details: Cytochrome panel assay with activity outcomes
run.conditions: recombinant CYP, pro-luciferin dealkylation, luminescence, p450-cyp1a2; series mostly up to 57.1 µM
Among all 16,000 compounds or so, about 5,700 (36%) were called active. Another 24% or so got no clear call; they are omitted. The list shows a part of the results.
value.kind: AC50

# example entries with known answers
O=C(Nc1cccc(C(F)(F)F)c1)c1ccc(Cn2cc(Br)cn2)o1 : 2 µM (active)
COC(=O)c1ccc(NC(=O)Cn2nc(-c3ccncc3)nc2SCC(=O)Nc2nccs2)cc1 : 11.2 µM (active)
O=C1N=C(N2CCOCC2)S/C1=C/c1cccs1 : 5.62 µM (active)
Nc1nc(Br)c2c(F)cccc2c1-c1ccc(Cl)cc1 : 3.55 µM (active)
COC(=O)C(C)Sc1nc2c(cnn2-c2ccc(C)cc2)c(=O)[nH]1 (centres undefined) : 2.51 µM (active)
CCc1cccc(C)c1NC(=O)CSc1nc2ccc(N3C(=O)c4ccccc4C3=O)cc2s1 : inactive
CCN(CC)C(=O)CSc1nc2ccc(NC(=O)CSc3nnc(COc4ccccc4C)n3C)cc2s1 : inactive
COCC(=O)N1CCC2(CCCN(C(=O)Nc3ccc(OC)cc3)C2)CC1 : inactive

Note to self: AC50 recorded for "O=c1c2ccccc2ncn1CCCSc1ccccc1" was 7.08 µM (active)

----------
tested.system: Cytochrome P450 1A2 (Homo sapiens) (UniProt P05177)
assay.details: Cytochrome panel assay with activity outcomes
run.conditions: recombinant CYP, pro-luciferin dealkylation, luminescence, p450-cyp1a2; series mostly up to 57.1 µM
The whole screen tested about 16,000 compounds, of which about 5,700 (36%) were called active. Another 24% or so got no clear call; they are omitted. Calls come from the whole dose curve; as a rule, active = well fitted curve in the direction sought with a large enough effect; inconclusive = small, poorly fitted or top-dose-only effect, or effect the other way; inactive = no such curve, though single readings can be large or run the other way. This is one part of the list.
Give one outcome, nothing more. List: active, inactive

As a guide, the following entries are already answered.
COc1cc2c(cc1OC)-c1cc(=Nc3c(C)cc(C)cc3C)n(C)c(=O)n1CC2 : inactive
Cc1cc(C)c(NC(=O)C2CCCN2C)c(C)c1 (configuration not stated) : inactive

Req: Dear all, I need the recorded test outcome for "CCCCN1CCCC[C@H]1C(=O)Nc1c(C)cccc1C" , thank you.
Resp: active

Req: Call for entry "N#Cc1c(-c2ccccc2)cc(C2CC2)nc1SCC(=O)c1cccs1" :
Resp: active

Req: Hi team, can someone confirm the assay call for "Cc1cc(C)c2cc(C#N)c(NCCOC(=O)c3ccccc3C)nc2c1" ?
Resp: active

Req: Would you mind telling me which call this test gave "C[C@H](NC(=O)Cn1cncn1)c1ccccc1" ?
Resp: inactive

Req: I would be grateful if you could indicate the recorded call for "CC1=CC(C)(C)NC(=S)N1c1cccc(C)c1" .
Resp: inactive

Req: What classification did "CCCCNc1nc(-c2ccccc2)c(C(=O)OCC)cc1C#N" end up with in this test?
Resp: active

----------
tested.system: Cytochrome P450 1A2 (Homo sapiens)
assay.details: Cytochrome panel assay with activity outcomes
run.conditions: recombinant CYP, pro-luciferin dealkylation, luminescence, p450-cyp1a2; series mostly up to 57.1 µM
Screen size: about 16,000 compounds; about 5,700 (36%) were called active. Inconclusive results (about 24%) are left out. Calls follow the shape of the dose curve; as a rule, active = well fitted curve in the direction sought with a large enough effect; inconclusive = small, poorly fitted or top-dose-only effect, or effect the other way; inactive = no such curve, though single readings can be large or run the other way. The list shows a part of the results.
Classes to choose from: true for active, false for inactive

COC(=O)[C@@H]1C[C@H]1[C@@H](NC(=O)c1cnccn1)c1ccccc1 : true
COC(=O)[C@H]1C[C@@H]1[C@H](NC(=O)OCc1ccccc1)c1ccccc1 : true
CC(=O)Nc1cccc(N2C(=O)CCC2=O)c1 : false
Cc1ccccc1NS(=O)(=O)c1ccc2[nH]cc(C(=O)N(C)Cc3ccco3)c(=O)c2c1 : true

Req: Any idea what this test logged for "O=[N+]([O-])c1c(NCCO)cc(Sc2nc3ccccc3s2)c2nonc12" ?
Resp: true

----------
tested.system: Cytochrome P450 1A2 (Homo sapiens) (UniProt P05177)
assay.details: Cytochrome panel assay with activity outcomes
run.conditions: recombinant CYP, pro-luciferin dealkylation, luminescence, p450-cyp1a2; series mostly up to 57.1 µM
Among all 16,000 compounds or so, about 5,700 (36%) were called active. Inconclusive results (about 24%) are left out. The call rests on the fitted dose curve; in most records, active means well fitted curve in the direction sought with a large enough effect; inconclusive means small, poorly fitted or top-dose-only effect, or effect the other way; inactive means no such curve, though single readings can be large or run the other way. This is one part of the list.
Answer with one of the outcomes active, inactive

Consider the worked cases shown below.
COc1ccccc1NC(=O)CN1CCC(C(=O)c2ccc(F)cc2)CC1 : inactive
O=C(Nc1cccn(Cc2ccc(F)cc2)c1=O)NC1CCCCC1 : active
Cc1ccc(C(=O)C(OC(=O)CN2C(=O)c3ccccc3C2=O)c2ccccc2)cc1 (stereo not given) : inactive
CC(C)[C@H](CO)Nc1nc(Nc2ccc(C(=O)O)c(Cl)c2)c2ncn(C(C)C)c2n1 : inactive
CC(C)OC(=O)CN1CCN(C2c3ccccc3-c3ccccc32)CC1 : active

Req: Can you look up the reported call for "CCOC(=O)N1CCN(CC(=O)c2ccc3c(c2)CCN3)CC1" for me?
Resp: inactive

Req: Record request — test call for "COc1ccc(NC(C)=O)cc1NC(=O)CN1CCN(CC(=O)Nc2ccccc2Cl)CC1"
Resp: inactive

Req: What did this assay record as the result for "COc1ccc(NC(C)=O)cc1NC(=O)CN1CCN(C2c3ccccc3-c3ccccc32)CC1" ?
Resp: active

Req: Lab log entry: "Cc1ccc(Cn2cccc(NC(=O)NCc3ccccc3)c2=O)cc1" — outcome as called in the assay?
Resp: inactive

Req: Would you mind telling me which call this test gave "COc1ccccc1NC(=O)CN1CCN(c2ccccc2F)CC1" ?
Resp: active

----------
tested.system: Cytochrome P450 1A2 (Homo sapiens)
assay.details: Cytochrome panel assay with activity outcomes
run.conditions: recombinant CYP, pro-luciferin dealkylation, luminescence, p450-cyp1a2; series mostly up to 57.1 µM
About 5,700 (36%) of roughly 16,000 compounds were called active. Inconclusive results (about 24%) are left out. Calls follow the shape of the dose curve; as a rule, active = well fitted curve in the direction sought with a large enough effect; inconclusive = small, poorly fitted or top-dose-only effect, or effect the other way; inactive = no such curve, though single readings can be large or run the other way. Some of the results follow.
Pick one: 1 (yes) (active), 0 (no) (inactive)

Worked examples, 5 compounds total:
Cn1c([N+](=O)[O-])cnc1COC(N)=O : 0 (no)
Cc1[nH]n(C(C)(C)C)c(=O)c1Sc1ccc(Cl)cc1 : 0 (no)
C/C(=N\NC(=S)Nc1ccc(F)cc1)C1CC1 : 1 (yes)
CCOC(=O)c1cnc2cc(-c3ccc(C(C)(C)C)cc3)nn2c1N : 0 (no)
COc1ccccc1CNC(=O)CCCn1c(=O)c2ccccc2n(CC(=O)NC2CCCC2)c1=O : 0 (no)

Now, please, on to the next compound.
Req: Returns: the outcome recorded for "CCOC(=O)c1cnc2cc(-c3ccc(C)cc3)nn2c1-c1ccccc1" in this assay.
Resp: 1 (yes)
